experimental-system: glucocerebrosidase (Gcase) (Homo sapiens, UniProt P04062)
Construct: micellar solution containing 10 nM GCase and 100 nM saposin C
Sequence (P04062 40-536): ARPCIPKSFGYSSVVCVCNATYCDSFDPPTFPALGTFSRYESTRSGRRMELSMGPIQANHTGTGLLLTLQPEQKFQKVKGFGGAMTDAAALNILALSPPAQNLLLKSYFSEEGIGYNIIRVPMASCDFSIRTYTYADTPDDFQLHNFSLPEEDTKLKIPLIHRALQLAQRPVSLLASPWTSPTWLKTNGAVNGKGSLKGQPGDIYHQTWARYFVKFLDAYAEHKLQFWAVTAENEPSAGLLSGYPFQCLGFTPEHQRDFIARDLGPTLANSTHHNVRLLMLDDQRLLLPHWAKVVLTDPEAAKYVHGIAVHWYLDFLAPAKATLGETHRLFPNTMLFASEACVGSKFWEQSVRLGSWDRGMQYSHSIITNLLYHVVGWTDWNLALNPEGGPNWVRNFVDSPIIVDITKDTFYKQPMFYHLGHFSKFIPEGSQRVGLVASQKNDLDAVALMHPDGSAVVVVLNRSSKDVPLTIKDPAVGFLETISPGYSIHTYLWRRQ
method-description: Glucocerebrosidase (Gcase) activation assay, 4-methylumbelliferyl-beta-D-glucopyranoside substrate, fluorescence readout
Format: biochemical
condition-context: test compound at 0.1 μM; read-out: Percent Gcase Activation, 0.1 μM Test Compound
measured-quantity: activation at 0.1 µM

Illustrative cases are given below, each with its answer.
* Cc1cc(C)n2ccc(C(=O)N[C@H]3CC[C@H](OC(C)(C)C)CC3)c2n1 | 10 to 20%
* Cc1cc(Br)nc2c(C(=O)Nc3ccc(-c4cocn4)cc3)ccn12 | 10 to 20%

Quick one: activation at 0.1 µM of "CNCCCCOc1ccc(NC(=O)c2ccn3c(C)cc(C)nc23)cc1" ?
< 10%

Attribution: patent US11351173B2
